Tested on: K562
Experiment: Antiproliferative activity against human K562 cells assessed as inhibition of cell proliferation measured after 72 hrs by MTT assay
Format: functional, cell-based
Conditions: K562, 72 h
Provide the recorded IC50 for the entries that follow.
Please give a number only; it is taken to be in µM.

In plain terms, Cc1[nH]c2c(O)c3c(c(O)c2c1C(=O)NC1CCNCC1)C(=O)c1ccccc1C3=O has a documented IC50 of 0.4

Entry Cc1[nH]c2c(O)c3c(c(O)c2c1C(=O)N1CC[C@H](N)C1)C(=O)c1ccccc1C3=O , IC50 reported as 0.8

Briefly, IC50 measured for N[C@H]1CCN(C(=O)c2coc3c(O)c4c(c(O)c23)C(=O)c2ccccc2C4=O)C1 : 0.9

The compound listed as Cc1[nH]c2c(O)c3c(c(O)c2c1C(=O)N[C@@H]1CCNC1)C(=O)c1ccccc1C3=O has a reported IC50 of 0.8

IC50 reading for Cc1[nH]c2c(O)c3c(c(O)c2c1C(=O)N1CCCC(N)C1)C(=O)c1ccccc1C3=O (centres undefined) : 0.4

The compound N[C@@H]1CCN(C(=O)c2csc3c(O)c4c(c(O)c23)C(=O)c2ccccc2C4=O)C1 showed IC50 equal to 1.2

// field: IC50; key: CCCn1c(C)c(C(=O)N2CC[C@H](N)C2)c2c(O)c3c(c(O)c21)C(=O)c1ccccc1C3=O ; value = 1.2

Noted for Cc1[nH]c2c(O)c3c(c(O)c2c1C(=O)N[C@H]1CCNC1)C(=O)c1ccccc1C3=O : its IC50 reads 0.7

// O=C1c2ccccc2C(=O)c2c1c(O)c1scc(C(=O)NC3CCNCC3)c1c2O : IC50 value = 1.5

###

Experiment: Antiproliferative activity against P-gp-positive/doxorubicin-resistant human K562/4 cells assessed as inhibition of cell proliferation measured after 72 hrs by MTT assay
Type: functional
Settings: K562/4, 72 h
Outcome Measure: pIC50
# pIC50: negative log10 of molar concentration; output just the value

Lookup result for Cc1c(C(=O)N2CC[C@H](N)C2)c2c(O)c3c(c(O)c2n1Cc1ccccc1)C(=O)c1ccccc1C3=O ; measured pIC50: 5.26

Query N[C@H]1CCN(C(=O)c2coc3c(O)c4c(c(O)c23)C(=O)c2ccccc2C4=O)C1 yields pIC50 of 5.85

Cc1c(C(=O)N2CC[C@H](N)C2)c2c(O)c3c(c(O)c2n1C)C(=O)c1ccccc1C3=O has a reported pIC50 of 4.60

get_value(item= N[C@H]1CCN(C(=O)c2csc3c(O)c4c(c(O)c23)C(=O)c2ccccc2C4=O)C1 , readout=pIC50) returns 5.37

Entry CCCn1c(C)c(C(=O)N2CC[C@H](N)C2)c2c(O)c3c(c(O)c21)C(=O)c1ccccc1C3=O ; pIC50 = 5.15

Reported pIC50 of CCn1c(C)c(C(=O)N2CC[C@H](N)C2)c2c(O)c3c(c(O)c21)C(=O)c1ccccc1C3=O : 4.55

Consider N[C@@H]1CN(C(=O)c2csc3c(O)c4c(c(O)c23)C(=O)c2ccccc2C4=O)C[C@H]1N . Its measured pIC50 is 4.84

Value of measured pIC50 for the entry Cc1[nH]c2c(O)c3c(c(O)c2c1C(=O)N1CC[C@H](N)C1)C(=O)c1ccccc1C3=O : 4.67

So, COc1cccc2c1C(=O)c1c(O)c3c(c(O)c1C2=O)C[C@@](O)(C(=O)CO)C[C@@H]3O[C@H]1C[C@H](N)[C@H](O)[C@H](C)O1 [DOXORUBICIN] ? Its pIC50 was 5.26
